Field: viability at 2 µM. Provide a value for each of the compounds that follow.
System: DU145 androgen-independent prostate cancer cells
method-description: CellTiter-Glo Luminescent Cell Viability Assay, DU145 cells
Type: cell-based
condition-notes: Homo sapiens, DU-145; compound at 2 μM; 48 hours treatment; % of survival normalized to DMSO control
Numbers only here, please. The scale is %.

Prompt line: For the compound Oc1c(CN2CCCCC2)ccc2cccnc12 [SD70-20, 7-(piperidin-1-ylmethyl)quinolin-8-ol] , what viability at 2 µM is on record?
Response line: 88

Prompt line: Would you mind doing CC(C)CCNCc1ccc2cccnc2c1O [SD70-21, 7-((isopentylamino)methyl)quinolin-8-ol] as well?
Response line: 100

Prompt line: And for CCC(=O)NC(c1ccc(OC)c(OC)c1)c1cc(Cl)c2cccnc2c1O (stereo not shown) [SD70-9] ?
Response line: 10

Prompt line: Next: CCC(=O)NC(c1ccco1)c1cc(Cl)c2cccnc2c1O (stereo not shown) [SD70-1]
Response line: 87

* * *

Tested on: PC3 androgen-independent prostate cancer cells
method-description: CellTiter-Glo Luminescent Cell Viability Assay, PC3 cells
Format: cell-based
condition-notes: Homo sapiens, PC-3; compound at 2 μM; 48 hours treatment; % of survival normalized to DMSO control
Structures can show the parent of a compound that is named as a salt.
value-type: viability at 2 µM
Report the figure along with its unit, number first.

Prompt line: Requested read-out: viability at 2 µM. Entry: CCC(=O)NC(c1ccco1)c1ccc2cccnc2c1O (stereo not shown)
Response line: 79%

Prompt line: Subsequent entry: Oc1c(CN2CCN(c3ccccn3)CC2)ccc2cccnc12
Response line: 125%

Prompt line: Request: Oc1ccc(COCc2ccccc2)c2cccnc12
Response line: 14%

Prompt line: Again, but for Oc1ccc(CNCCN2CCOCC2)c2cccnc12
Response line: 98%

Prompt line: Next compound: COc1ccc(C(=O)NC(c2ccco2)c2cc(Cl)c3cccnc3c2O)cc1 (stereo not shown)
Response line: 24%

Prompt line: Proceed to Oc1c(CNCCN2CCOCC2)ccc2cccnc12
Response line: 98%

Prompt line: Follow-up entry: CC(C)C(=O)NC(c1ccco1)c1cc(Cl)c2cccnc2c1O (stereo not shown)
Response line: 9%

Prompt line: What would you report for CCCC(=O)NC(c1ccco1)c1cc(Cl)c2cccnc2c1O (stereo not shown) ?
Response line: 7%

Prompt line: Queued: CCC(=O)NC(c1ccco1)c1cc(Cl)c2cccnc2c1O (stereo not shown)
Response line: 47%

Prompt line: Next compound up: CCC(=O)NC(c1ccco1)c1cc([N+](=O)[O-])c2cccnc2c1O (stereo not shown)
Response line: 93%

Prompt line: What do you get for O=C(COc1ccccc1)NC(c1ccco1)c1cc(Cl)c2cccnc2c1O (stereo not shown) ?
Response line: 21%

Prompt line: Next up: O=C(NC(c1ccco1)c1cc(Cl)c2cccnc2c1O)c1cccnc1 (stereo not shown)
Response line: 23%

Prompt line: And CCC(=O)NC(c1ccc(OC)c(OC)c1)c1cc(Cl)c2cccnc2c1O (stereo not shown) ?
Response line: 21%

Prompt line: Repeat for the following compound: CC(C)C(=O)NC(c1ccco1)c1ccc2cccnc2c1O (stereo not shown)
Response line: 14%

Prompt line: Also, CC(=O)NC(c1ccco1)c1cc(Cl)c2cccnc2c1O (stereo not shown) please.
Response line: 88%

Prompt line: How about CC(C)CCNCc1ccc2cccnc2c1O ?
Response line: 93%

Prompt line: Moving on to Oc1ccc(CCl)c2cccnc12 [SD70-15, hydrochloride]
Response line: 96%

Prompt line: What do we get for Oc1c(CN2CCCCC2)ccc2cccnc12 ?
Response line: 98%

Prompt line: What do you get for CCC(=O)NC(c1ccccc1OC)c1cc(Cl)c2cccnc2c1O (stereo not shown) ?
Response line: 61%
